Experiment: Cytotoxicity against human BEL-7404 cells after 48 hrs by MTT assay
Format: functional, cell-based
Conditions: BEL-7404, 48 h
pIC50: −log10 of the molar value.
Measured pIC50 of individual entries
OBSERVED PROPERTY: pIC50

>>> reading("CCCCCCCCCC[C@H](O)COCCOC[C@@H](O)CCCCCCCCCCCCC1=C[C@H](C)NC1=O")
5.66
>>> reading("CCCCCCCCCC[C@H](O)COCCOC[C@@H](O)CCCCCCCCCCCCC1=C[C@H](C)OC1=O")
7.39
>>> reading("CCCCCCCCCC[C@H](O)COCCOC[C@@H](O)CCCCCCCCCCCCC1=C[C@H](C)N(C)C1=O")
6.63
>>> reading("CCCCCCCCCC[C@H](O)COCCOC[C@@H](O)CCCCCCCCCCCCC1=CCN(C)C1=O")
6.77

Values were extracted from ChEMBL document CHEMBL1139936.
